tested on: L1210 mouse leukemia cells; assay: formation of colonies of L1210 leukemia cells in soft agar; type: cell-based; conditions: Mus musculus, L1210, 168 h, read-out: Long-term incubation IC50, continuous exposure, 7 days, L1210 colony formation
Consider the following compounds and their measured log10(IC50) readings.
Log scale reminder: IC50 in µg/mL, then log10 taken.

>>> endpoint_result("CC[C@@]1(O)C[C@H](O[C@H]2C[C@H](N(C)C)[C@H](OC(=O)c3ccc(Br)cc3)[C@H](C)O2)c2c(O)c3c(c(O)c2[C@H]1O[C@H]1C[C@H](N(C)C)[C@H](OC(=O)c2ccc(Br)cc2)[C@H](C)O1)C(=O)c1cccc(O)c1C3=O [Compound 8]")
-0.52

q: Quick one: log10(IC50) for CC[C@@]1(O)C[C@H](O[C@H]2C[C@H](N(C)C)[C@H](OC(=O)c3ccc(OC)cc3)[C@H](C)O2)c2c(O)c3c(c(O)c2[C@H]1O[C@H]1C[C@H](N(C)C)[C@H](OC(=O)c2ccc(OC)cc2)[C@H](C)O1)C(=O)c1cccc(O)c1C3=O [Compound 3] ?
a: -0.94

q: Continue with COc1cccc2c1C(=O)c1c(O)c3c(c(O)c1C2=O)C[C@@](O)(C(=O)CO)C[C@@H]3O[C@H]1C[C@H](N)[C@H](O)[C@H](C)O1 [Adriamycin, reference compound]
a: -1.70

q: Continue with CC[C@@]1(O)C[C@H](O[C@H]2C[C@H](N(C)C)[C@H](OC(=O)c3ccc([N+](=O)[O-])cc3)[C@H](C)O2)c2c(O)c3c(c(O)c2[C@H]1O[C@H]1C[C@H](N(C)C)[C@H](OC(=O)c2ccc([N+](=O)[O-])cc2)[C@H](C)O1)C(=O)c1cccc(O)c1C3=O [Compound 7]
a: 0.32

q: Continue with CC[C@@]1(O)C[C@H](O[C@H]2C[C@H](N(C)C)[C@H](OC(=O)c3ccc(C#N)cc3)[C@H](C)O2)c2c(O)c3c(c(O)c2[C@H]1O[C@H]1C[C@H](N(C)C)[C@H](OC(=O)c2ccc(C#N)cc2)[C@H](C)O1)C(=O)c1cccc(O)c1C3=O [Compound 5]
a: -0.98

q: Continue with CC[C@@]1(O)C[C@H](O[C@H]2C[C@H](N(C)C)[C@H](OC(=O)c3ccc([N+](=O)[O-])cc3)[C@H](C)O2)c2c(O)c3c(c(O)c2[C@H]1O)C(=O)c1cccc(O)c1C3=O [Compound 19]
a: -1.52
